Each entry below carries its reported normalized RNA/DNA level with ligand (log10).
B1: library; a variant is named by its letters at N, in order (parent)
chain: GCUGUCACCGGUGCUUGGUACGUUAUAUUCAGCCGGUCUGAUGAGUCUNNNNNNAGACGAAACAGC

Variants of: B1
assay.details: normalized RNA/DNA level with ligand (relative to sTRSVctl = 100) (log10 (% of sTRSVctl)); HEK293T overexpressing SLC46A1; ligand concentration (+) RNA-Seq: 6 mM; higher = less ribozyme self-cleavage, higher mRNA level
conditions: with (6R,S)-folinic acid; ligand present: yes
A bare number is all that is needed in reply.

Some entries whose results are on file:
{"mutant.code": "UCGCGG", "observed.result": 2.08}
{"mutant.code": "CUUGUA", "observed.result": 2.04}

# input Entry UGGAUC has what normalized RNA/DNA level with ligand (log10)?
# output 2.01

# input Entry UAUGUG has what normalized RNA/DNA level with ligand (log10)?
# output 1.94

# input Entry CUGCGC has what normalized RNA/DNA level with ligand (log10)?
# output 2.01

# input Entry AUCCCU has what normalized RNA/DNA level with ligand (log10)?
# output 2.03

# input Entry UUCAGA has what normalized RNA/DNA level with ligand (log10)?
# output 2
